# Assay system: α1G T-type calcium channels (Homo sapiens)
# Construct: host or cells: HEK293
# Sequence (O43497 whole entry): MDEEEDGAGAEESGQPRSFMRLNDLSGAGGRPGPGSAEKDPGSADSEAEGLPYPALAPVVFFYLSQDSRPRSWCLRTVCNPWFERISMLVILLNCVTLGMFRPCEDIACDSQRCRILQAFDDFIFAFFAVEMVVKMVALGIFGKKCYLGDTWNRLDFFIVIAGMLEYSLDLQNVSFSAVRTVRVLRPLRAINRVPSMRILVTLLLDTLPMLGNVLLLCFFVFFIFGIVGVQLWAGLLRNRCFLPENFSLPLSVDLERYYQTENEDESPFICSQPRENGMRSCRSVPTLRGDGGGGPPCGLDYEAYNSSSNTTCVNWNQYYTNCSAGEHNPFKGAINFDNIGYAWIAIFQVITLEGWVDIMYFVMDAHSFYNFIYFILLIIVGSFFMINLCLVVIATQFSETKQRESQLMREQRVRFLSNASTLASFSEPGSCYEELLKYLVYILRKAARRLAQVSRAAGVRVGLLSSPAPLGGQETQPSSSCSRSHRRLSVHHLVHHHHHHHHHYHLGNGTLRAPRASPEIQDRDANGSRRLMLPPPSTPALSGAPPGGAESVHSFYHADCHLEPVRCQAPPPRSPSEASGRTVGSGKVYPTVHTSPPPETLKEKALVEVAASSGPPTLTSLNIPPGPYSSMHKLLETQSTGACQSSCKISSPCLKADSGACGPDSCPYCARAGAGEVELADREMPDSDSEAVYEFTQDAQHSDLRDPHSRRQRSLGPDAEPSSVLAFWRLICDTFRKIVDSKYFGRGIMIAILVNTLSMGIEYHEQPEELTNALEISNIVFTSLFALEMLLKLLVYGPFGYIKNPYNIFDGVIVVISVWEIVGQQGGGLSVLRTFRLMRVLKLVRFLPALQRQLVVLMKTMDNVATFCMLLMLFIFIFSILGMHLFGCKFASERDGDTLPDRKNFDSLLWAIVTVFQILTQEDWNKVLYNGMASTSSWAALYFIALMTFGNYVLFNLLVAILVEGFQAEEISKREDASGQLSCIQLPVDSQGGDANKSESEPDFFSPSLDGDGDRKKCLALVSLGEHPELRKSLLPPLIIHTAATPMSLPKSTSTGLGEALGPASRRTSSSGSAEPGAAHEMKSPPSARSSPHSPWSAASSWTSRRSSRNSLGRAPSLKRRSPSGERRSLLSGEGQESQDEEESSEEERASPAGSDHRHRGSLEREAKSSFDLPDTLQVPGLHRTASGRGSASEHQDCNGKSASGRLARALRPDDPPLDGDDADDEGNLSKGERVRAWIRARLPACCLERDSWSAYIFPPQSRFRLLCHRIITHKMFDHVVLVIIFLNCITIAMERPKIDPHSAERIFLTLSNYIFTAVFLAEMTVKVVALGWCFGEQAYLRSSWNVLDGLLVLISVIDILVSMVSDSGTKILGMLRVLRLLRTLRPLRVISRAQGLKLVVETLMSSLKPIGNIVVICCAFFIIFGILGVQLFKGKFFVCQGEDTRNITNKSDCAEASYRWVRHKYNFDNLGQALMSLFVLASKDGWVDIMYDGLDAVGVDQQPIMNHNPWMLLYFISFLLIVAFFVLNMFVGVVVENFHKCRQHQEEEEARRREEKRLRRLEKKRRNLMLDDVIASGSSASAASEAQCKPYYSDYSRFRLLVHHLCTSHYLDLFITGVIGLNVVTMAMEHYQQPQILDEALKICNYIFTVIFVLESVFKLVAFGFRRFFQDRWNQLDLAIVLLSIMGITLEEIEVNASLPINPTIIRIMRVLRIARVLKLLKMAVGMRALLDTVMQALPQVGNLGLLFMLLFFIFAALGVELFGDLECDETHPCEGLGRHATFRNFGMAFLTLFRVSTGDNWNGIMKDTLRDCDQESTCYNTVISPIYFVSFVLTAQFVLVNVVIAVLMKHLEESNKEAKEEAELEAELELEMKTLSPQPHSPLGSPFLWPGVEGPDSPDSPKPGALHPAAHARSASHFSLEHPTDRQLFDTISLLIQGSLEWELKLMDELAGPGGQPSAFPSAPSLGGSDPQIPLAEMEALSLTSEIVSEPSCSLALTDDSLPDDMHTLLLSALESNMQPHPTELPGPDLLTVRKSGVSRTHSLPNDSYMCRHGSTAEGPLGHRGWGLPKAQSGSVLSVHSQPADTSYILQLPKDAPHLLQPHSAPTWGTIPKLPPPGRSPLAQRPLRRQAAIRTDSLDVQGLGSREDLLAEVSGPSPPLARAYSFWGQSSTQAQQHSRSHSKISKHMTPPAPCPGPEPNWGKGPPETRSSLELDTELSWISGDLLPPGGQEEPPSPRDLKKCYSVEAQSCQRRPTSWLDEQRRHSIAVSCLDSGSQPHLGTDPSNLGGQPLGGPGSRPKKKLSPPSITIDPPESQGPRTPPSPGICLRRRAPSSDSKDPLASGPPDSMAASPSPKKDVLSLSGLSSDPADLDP
# Run description: T-type calcium channel activity using the FDSS6000 (HTS, Fluo-3/AM, KCl-induced intracellular calcium change)
# Assay type: cell-based
# Cond: percent inhibition at 10 μM; HEK293 cells stably expressing α1G T-type calcium channels and Kir2.1; KCl 75 mM activation; read-out: FDSS (%, 10 μM)
Experimental endpoint: inhibition at 10 µM (%)
The figure you give is taken to be in %; do not add the unit.

Cc1nccn1CCC(=O)N1CCN(C(c2ccccc2)c2ccccc2)CC1 :: 35
Cc1cccc(CN2CCN(CCNC(=O)CCn3cnc(-c4ccccc4)c3)CC2)c1 :: 39.2
O=C(CCn1cnc(-c2ccccc2)c1)N1CCN(Cc2ccccc2)CC1 :: 33.5
Cc1cccc(CN2CCN(CCNC(=O)CCn3ccnc3-c3ccccc3)CC2)c1 :: 31.1
O=C(CCn1ccnc1-c1ccccc1)N1CCN(c2ccccc2)CC1 :: 24.2
O=C(CCn1cnc(-c2ccccc2)c1)N1CCN(c2cccc(Cl)c2)CC1 :: 63.7

(Q) Reported inhibition at 10 µM, compound O=C(CCn1ccnc1-c1ccccc1)N1CCN(c2cccc(Cl)c2)CC1 : ____
(A) 35.1
